system name: Neu5Ac(b2-6)Gal(b1-4)GlcNAc
experimental details: glycan array binding signal (z-score within array); higher = stronger binding
measurement context: glycan notation: IUPAC condensed, linker removed
Many of the other results were omitted from the sample, so the strongest signals are more common in it than they were.
readout kind: glycan array binding signal (z-score)

>  <binder>
RS2L (Ralstonia solanacearum), B5RXL5_RALSO (protein) MAQQGVFTLPANTSFGVTAFANAANTQTIQVLVDNVVKATFTGSGTSDKLLGSQVLNSGSGAIKIQVSVNGKPSDLVSNQTILANKLNFAMVGSEDGTDNDYNDGIAVLNWPLG

>  <readout kind>
glycan array binding signal (z-score)

>  <assay value>
-0.252

$$$$
>  <binder>
SSA (Sclerotinia sclerotiorum), A7XUK7 (protein) MGFKGVGTYEIVPYQAPSLNLNAWEGKLEPGAVVRTYTRGDKPSDNAKWQVALVAGSGDSAEYLIINVHSGYFLTATKENHIVSTPQISPTDPSARWTIKPATTHQYEVFTINNKVSELGQLTVKDYSTHSGADVLSASAKTADNQKWYFDAK

>  <readout kind>
glycan array binding signal (z-score)

>  <assay value>
-0.415

$$$$
>  <binder>
BC2L-D C-terminal domain (Burkholderia cenocepacia), Q39MQ9_BURS3 (protein) LVIVDAVTLLSAYPEASRDPAAPTVIDGRHLYVVSPGDAAQLGHNDSRLFTGLSPGDQLHLRETALALRAEVSVLFIRFALKDAGIVAPIELEVRDAATAVPDADDLLHPSCRPLKDHYWRSDVLAAGATTCTADFAVCDRDGTVSGYFRWETSIEIAGSQPDTKQPGFKPSSDRNGNFSLPPNTAFKAIFYANAADRQDLKLFIDDAPEPAATFVGNSEDGVRLFTLNSKGGKIRIEASANGRQSATDARLAPLSAGDTVWLGWLGAEDGADADYNDGIVILQWPIT

>  <readout kind>
glycan array binding signal (z-score)

>  <assay value>
-0.248

$$$$
>  <binder>
Eosinophil-derived neurotoxin (EDN) (Homo sapiens), P10153 (protein) MVPKLFTSQICLLLLLGLLAVEGSLHVKPPQFTWAQWFETQHINMTSQQCTNAMQVINNYQRRCKNQNTFLLTTFANVVNVCGNPNMTCPSNKTRKNCHHSGSQVPLIHCNLTTPSPQNISNCRYAQTPANMFYIVACDNRDQRRDPPQYPVVPVHLDRII

>  <readout kind>
glycan array binding signal (z-score)

>  <assay value>
0.387

$$$$
>  <binder>
Vd2LysM (Verticillium dahliae) (protein) YRRTCSHTGKGEGWYIIRRGDNFNAVAADFCTSTNVLTEWNHISTITDNMVNTKIKVPCRWNAGKQRDCLKDQKSSNGWYHIVSGDELKDIAYDFCTTSGSLAGMNGISNPDYIKANTDIVVPCSWN

>  <readout kind>
glycan array binding signal (z-score)

>  <assay value>
0.512

$$$$

Attribution: the supplement of paper PMC8728848
